Origin of values: patent US20240261417A1

# assay-system: SOS1 protein (Homo sapiens, UniProt Q07889)
# Sequence (Q07889 whole entry): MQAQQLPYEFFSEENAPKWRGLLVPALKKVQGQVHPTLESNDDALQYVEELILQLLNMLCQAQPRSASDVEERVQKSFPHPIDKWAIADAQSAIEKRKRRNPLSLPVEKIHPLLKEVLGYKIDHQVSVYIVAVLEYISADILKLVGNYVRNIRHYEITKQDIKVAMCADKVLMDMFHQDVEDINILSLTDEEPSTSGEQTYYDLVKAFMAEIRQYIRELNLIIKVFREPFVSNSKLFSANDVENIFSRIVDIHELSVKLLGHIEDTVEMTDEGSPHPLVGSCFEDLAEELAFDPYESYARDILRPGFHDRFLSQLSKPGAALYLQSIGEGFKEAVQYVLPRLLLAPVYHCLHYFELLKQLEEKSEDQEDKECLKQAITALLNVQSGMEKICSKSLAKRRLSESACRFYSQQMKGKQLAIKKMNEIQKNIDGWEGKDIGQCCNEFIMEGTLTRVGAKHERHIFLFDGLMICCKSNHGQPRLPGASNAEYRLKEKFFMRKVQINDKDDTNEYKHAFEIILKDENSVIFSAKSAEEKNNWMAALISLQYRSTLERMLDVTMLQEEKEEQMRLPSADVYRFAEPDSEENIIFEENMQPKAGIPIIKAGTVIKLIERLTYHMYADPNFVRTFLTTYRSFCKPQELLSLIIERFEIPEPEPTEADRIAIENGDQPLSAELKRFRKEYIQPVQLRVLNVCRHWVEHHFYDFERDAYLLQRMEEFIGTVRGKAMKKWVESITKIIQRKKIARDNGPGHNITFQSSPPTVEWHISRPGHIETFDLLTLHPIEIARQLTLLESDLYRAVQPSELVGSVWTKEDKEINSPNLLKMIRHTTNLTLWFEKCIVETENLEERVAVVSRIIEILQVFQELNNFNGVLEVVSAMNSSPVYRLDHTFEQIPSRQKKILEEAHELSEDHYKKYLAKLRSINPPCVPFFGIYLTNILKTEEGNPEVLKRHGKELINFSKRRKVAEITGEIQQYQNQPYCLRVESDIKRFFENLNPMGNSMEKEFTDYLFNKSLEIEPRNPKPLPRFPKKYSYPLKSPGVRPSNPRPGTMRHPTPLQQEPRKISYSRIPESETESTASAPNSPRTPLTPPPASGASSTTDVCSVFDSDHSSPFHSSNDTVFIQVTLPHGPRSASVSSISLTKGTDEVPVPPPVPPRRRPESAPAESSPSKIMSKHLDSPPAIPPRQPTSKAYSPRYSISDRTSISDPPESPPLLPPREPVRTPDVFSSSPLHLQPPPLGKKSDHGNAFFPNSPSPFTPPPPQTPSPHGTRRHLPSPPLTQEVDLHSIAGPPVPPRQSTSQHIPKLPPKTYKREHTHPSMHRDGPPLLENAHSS
# test-protocol: SOS1 degradation assay (Western blot), NCI-H358 cells
# Type: cell-based
# Set-up: The degradation of SOS1 by the compounds was investigated on KRAS G12C mutant human non-small cell lung cancer cells NCI-H358; host or cells: NCI-H358 (human cancer cell lines)
# condition-context: SOS1 degradation, NCI-H358 cells, 24 h, Western blot; read-out: NCI-H358 (G12C) DC50
measure-name: DC50

// solved cases for DC50 follow
compound: COc1cc2nc(C)nc(N[C@H](C)c3cc(N)cc(C(F)(F)F)c3)c2cc1[C@H]1CC[C@H](C(=O)N2CCN(CCC3CCN(C(=O)c4ccc(Cl)c(N5CCC(=O)NC5=O)c4)CC3)CC2)CC1 [Example 12]
result: 1000 to 10000 nM
--
compound: COc1cc2nc(C)nc(N[C@H](C)c3cc(N)cc(C(F)(F)F)c3)c2cc1[C@H]1CC[C@H](C(=O)N2CCC(CCCC3CCN(C(=O)c4ccc(Cl)c(N5CCC(=O)NC5=O)c4)CC3)CC2)CC1 [Example 14]
result: < 50 nM

Next up:
Find the measured DC50 of COc1cc2nc(C)nc(N[C@H](C)c3cc(N)cc(C(F)(F)F)c3)c2cc1[C@H]1CC[C@H](C(=O)N2CCC(CN3CCC4(CC3)CCN(C(=O)c3ccc(Cl)c(N5CCC(=O)NC5=O)c3)CC4)CC2)CC1 [Example 7] and report it.
1000 to 10000 nM
